System: DU-145
Experiment: Growth inhibition of human DU145 cells after 96 hrs by trypan blue exclusion assay
Format: functional
Conditions: DU-145, 96 h
MEASUREMENT KIND: GI50 (µM)

Example entries begin here.
1) O=C(/C(=C\c1ccc(O)c([N+](=O)[O-])c1)SCc1ccccc1Cl)c1ccc(Cl)cc1
10
2) O=C(/C(=C\c1ccc(Br)cc1)S(=O)(=O)c1ccccc1Br)c1ccc(Br)cc1
1
3) O=C(C(=Cc1ccc(O)c([N+](=O)[O-])c1)SCc1ccc(Br)cc1)c1ccc([N+](=O)[O-])c(Cl)c1
1

[P] Cc1cc(C)cc(/C=C(/SCc2ccc(Cl)cc2)C(=O)c2ccc(Cl)cc2)c1
[Q] O=C(/C(=C\c1ccc(Cl)cc1)Sc1ccc(Br)cc1)c1ccc(Br)cc1
[R] Cc1ccsc1/C=C(/SCc1ccc(F)cc1)C(=O)c1ccc(Cl)cc1
Order the entries by their reported GI50, beginning at the minimum. Please express your ranking as an ordered list of the labels.
Q, P, R
